From: the supplement of paper PMC11417369

gcPBM binding intensity (ln) overview
Test system: PF3D7_0420300 AP2 domain 1 (GST-tagged)
test_method_notes: gcPBM binding intensity (ln(normalized median fluorescence intensity)); higher = stronger DNA binding
The full ranking holds about 25,000 sequences; the median of “ln(normalized median fluorescence intensity)” is about 9.3, and the highest 2% start at about 10. This is one part of a sample in which the highest values are shown more often than they occur.
// keep it numeric: no unit symbol after the value

Sample records with gcPBM binding intensity (ln):
>  <input_sequence>
TATATATATAAATACACACACACCCTAAAAATATAT [CACACA_site4970]

>  <test_system>
PF3D7_0420300 AP2 domain 1 (GST-tagged)

>  <experimental_endpoint>
gcPBM binding intensity (ln)

>  <meas_value>
10.1

$$$$
>  <input_sequence>
ATAAAAAAAAGACACACACACATATATATATATATA [CACACA_site3073]

>  <test_system>
PF3D7_0420300 AP2 domain 1 (GST-tagged)

>  <experimental_endpoint>
gcPBM binding intensity (ln)

>  <meas_value>
9.67

$$$$
>  <input_sequence>
TGTATTAACAAAAAGGTGCGGATATATATAAAAAAT [GTGCAC_site9473]

>  <test_system>
PF3D7_0420300 AP2 domain 1 (GST-tagged)

>  <experimental_endpoint>
gcPBM binding intensity (ln)

>  <meas_value>
9.61

$$$$
>  <input_sequence>
TATAAATAAAGACACACACACATATAAATAAATATA [CACACA_site7155]

>  <test_system>
PF3D7_0420300 AP2 domain 1 (GST-tagged)

>  <experimental_endpoint>
gcPBM binding intensity (ln)

>  <meas_value>
10.1

$$$$

Now take the following sequence into account.
# input Find the recorded gcPBM binding intensity (ln) belonging to TATATATATATATACACACACACCCTAAAAATATAT [CACACA_site1611] and report it.
# output 9.97
